Biological target: Recombinant human his-tagged IGF R extracellular domain protein (human) (UniProt P08069)
Experiment: SPR, Ab captured via anti-huIgG Fc, dissociation at pH 6
Field 'label' (enum: YES / NO). Set to YES when kon is strictly under 100000 M⁻¹ s⁻¹; else NO.

Query string: Would you kindly verify if kon of VRDN-02003 (antibody, V domains shown) VH: QVQLQESGPGLVKPSETLSLTCTVSGYHITGGYLWNWIRQPPGKGLEWIGYISYDGTNNYKPSLKDRVTISRDTSKNQFSLKLSSVTAADTAVYYCARYGRVFFDYWGQGTLVTVSS VL: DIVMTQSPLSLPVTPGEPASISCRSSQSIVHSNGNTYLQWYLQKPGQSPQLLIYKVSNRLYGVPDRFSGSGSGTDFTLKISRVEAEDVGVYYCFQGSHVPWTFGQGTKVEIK is strictly less than 100000 M⁻¹ s⁻¹?
Result string: YES

Query string: Subsequent entry: VRDN-02070 (antibody, V domains shown) VH: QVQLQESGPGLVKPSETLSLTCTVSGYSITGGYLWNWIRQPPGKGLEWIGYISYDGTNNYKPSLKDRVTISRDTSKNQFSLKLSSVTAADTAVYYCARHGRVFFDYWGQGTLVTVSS VL: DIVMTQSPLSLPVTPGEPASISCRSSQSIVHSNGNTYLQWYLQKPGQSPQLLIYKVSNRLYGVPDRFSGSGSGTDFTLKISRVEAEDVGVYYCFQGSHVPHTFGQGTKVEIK
Result string: NO

Query string: Subsequent entry: VRDN-02020 (antibody, V domains shown) VH: QVQLQESGPGLVKPSETLSLTCTVSGYSITGGYLWNWIRQPPGKGLEWIGYISYDGTNHYKPSLKDRVTISRDTSKNQFSLKLSSVTAADTAVYYCARYGRVFFDYWGQGTLVTVSS VL: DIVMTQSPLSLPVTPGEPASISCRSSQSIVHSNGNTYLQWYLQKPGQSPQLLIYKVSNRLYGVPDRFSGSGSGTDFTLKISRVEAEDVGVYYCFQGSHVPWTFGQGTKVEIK
Result string: YES

Next:
Query string: Would you kindly verify if kon of VRDN-02050 (antibody, V domains shown) VH: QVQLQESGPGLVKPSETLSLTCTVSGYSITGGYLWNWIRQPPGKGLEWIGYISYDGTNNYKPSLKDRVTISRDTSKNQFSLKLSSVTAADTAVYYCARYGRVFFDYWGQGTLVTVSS VL: DIVMTQSPLSLPVTPGEPASISCRSSQSIVHSNGNTYLQWYLQKPGQSPQLLIYKVSNRLHGVPDRFSGSGSGTDFTLKISRVEAEDVGVYYCFQGSHVPWTFGQGTKVEIK is strictly less than 100000 M⁻¹ s⁻¹?
Result string: YES

Query string: Subsequent entry: VRDN-02071 (antibody, V domains shown) VH: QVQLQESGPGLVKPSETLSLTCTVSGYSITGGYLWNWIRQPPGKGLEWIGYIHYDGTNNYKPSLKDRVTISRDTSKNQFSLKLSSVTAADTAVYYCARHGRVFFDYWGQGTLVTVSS VL: DIVMTQSPLSLPVTPGEPASISCRSHQSIVHSNGNTYLQWYLQKPGQSPQLLIYKVSNRLYGVPDRFSGSGSGTDFTLKISRVEAEDVGVYYCFHGSHVPWTFGQGTKVEIK
Result string: NO

Query string: Subsequent entry: VRDN-02062 (antibody, V domains shown) VH: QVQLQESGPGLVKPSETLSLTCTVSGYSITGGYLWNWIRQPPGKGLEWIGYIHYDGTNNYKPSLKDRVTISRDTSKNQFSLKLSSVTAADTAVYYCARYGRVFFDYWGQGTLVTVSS VL: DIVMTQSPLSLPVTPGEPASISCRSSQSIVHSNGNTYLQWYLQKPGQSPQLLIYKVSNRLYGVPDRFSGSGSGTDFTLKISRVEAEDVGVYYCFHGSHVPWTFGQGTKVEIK
Result string: NO
